- METHOD_DESCRIPTION: yeast display, Sf9 membrane polyspecificity reagent, FACS + sequencing; frameworks hold sequencing errors
ATTRIBUTE_MEASURED: polyreactivity (PSR sort gate)

Consider the following illustrative entries.
Summary for this sequence, `QVQLVESGGGLVQAGGSLRLSCAACGSIVRDYAMGWYRQAPGKERELVAAIRQSGGRTYYADSVKGRFTISRDNAKNTVYLQMNSLKPDDTAVYYCIARRANYWKKASTQYYYWGQGTQVTVSS` : polyreactivity (PSR sort gate) is high polyreactivity

// `QVQLVESGGGLVQAGGSLRLSCAASGSTFQYNAMGWYRQAPGKERELVAVITRRGGRTYYADSVKGRFTISRDNAKNTVYLQMNSLKPEDTAVYYCAAYYDYTHRFYYWGQGTQVTVSS` : polyreactivity (PSR sort gate) value = high polyreactivity

sequence `QVQLVESGGRIVQAGGSLRLSCAASGIIFYLYTMGWYRQAPGKERQFVADISSGTTTYYADSVKGRFTISRDNAKNTVYLQMNSLKPADSAVYYCAAQLFRELYWGQGTQVTVSS` , polyreactivity (PSR sort gate) observed: high polyreactivity

The sequence listed as `QVQLVESGGGLVQAGGSLRLSCAASGRTIYQYAMGGYRQATGKARELDAAISRGGSTNFADSLKGRFTISRDNAKNTVYLQMNSLKPEDTAVYYCASWYKFLSLKRLYERDYWGQGTQVTVSS` shows polyreactivity (PSR sort gate) equal to high polyreactivity

What the record says about `QVQLVESGGGLVQAGGSLRLSCAASGYIFWENAMGWYRQAPGKERELVAAITVSGGGTYYADSVKGRFTISRDNAKNTVYLQMNSLEPEDTAVYSCAADEDNPWLWFYYCGQGTQVTVSS` : polyreactivity (PSR sort gate) is low polyreactivity

Recorded result, `QVQLEESGGGLVQAGASLRLSCAASGRTFPRYAMGWSRQAPGKERELVAAITSSGGSTNYADSVKGRFTISRENATNSVYLQMYSLKPEDTAVYYCNARFPTQYILWSSSPYGYWGQGTQVTVSS` , polyreactivity (PSR sort gate): low polyreactivity

Query `QVQLVESGGGLVQEGGSLRLSCAASGGTFYVNDMGWYRQAPGKERELVATITSGDSTNYADSVKGRFTISRDNAKNTVYLQRNCLKPEDTAVYYCNARGDVIVTPPKFSFNYVYWGQGTQVTVSS` yields polyreactivity (PSR sort gate) of low polyreactivity

The recorded polyreactivity (PSR sort gate) for entry `QVQLVESGGGLVQAGGSLRLSCAASGFTFGGYAMGWYRQAPGKERDLVAAITGSGGNTIYADSVKGRFTISRDNAKNTFYLQINSLKPDDTAVYYCNARYTSHTHADCVYLFDYWGQGTQVNVSS` equals low polyreactivity

Input `QVQLVESGGGLVQAGGSLRLSCAASGSISRGNVMGWYRQAPGKERELVAGITRGGRTNYADSVKGRFTISRDNAKNTVYLQMNSLKPEDTAVYYCATYTYYVPWRQRGGYPDFDYWGQGTQVTVSS` . Output polyreactivity (PSR sort gate): high polyreactivity

For `QVQLVESGGGLVQAGGSLRLSCAASGRIFTTYAMGWYRQEPGKERELVAAISQNGGSTYYADSVKGRFTISRDNAKNTVYLQMNTLKPEDTAVYYCAAADYYGIRDLYASDGTHYYSWGQGTQVTVSS` the sequence record lists polyreactivity (PSR sort gate) as low polyreactivity

Next:
Data point: `QVQLVESGGGLVQAGGSLRLSCAASGRTSFQYAMGWYRQAPGKERELVAAISWSGGSTFYADSVKGRFTISRDNAKNTVYLQMNSLKPEDTAVYYCNAVSTDSWAYHGDYWGQGTQVTVSS` ; polyreactivity (PSR sort gate) = low polyreactivity

* * *

- METHOD_DESCRIPTION: yeast display, Sf9 membrane polyspecificity reagent, FACS + sequencing; frameworks hold sequencing errors
ATTRIBUTE_MEASURED: polyreactivity (PSR sort gate)

Examples with their reported polyreactivity (PSR sort gate) follow.
The reported value for `QVHLVESGGGLVQAGGSLRLTCAASGRTFPGYDMGWYRQAPGKERELVAAISWSGTSTYYADSVKGRFTISRDNSKNTVYLQMNSLIPEDTAVYYCAARVKGQWNTYEYWGQGTQVTVSS` in terms of polyreactivity (PSR sort gate) is high polyreactivity

// field: polyreactivity (PSR sort gate); key: `QVQLVESGGGLVQAGGSLRLSCAASGSIFSGYVMGWYRQAPGKERELVAAIDNSSGSTYYADSVKGRFTISRDNAKNSVYLQMNSLKPEDTAVYYCAAAYYWKAYSEYDYWGQGTQVTVSS` ; value = low polyreactivity

Per the record, `QVQLVESGAGLVQAGGSLRLSCAASGGTFWKYAMGWYRQAPGKESELVAAITWSGSSTYYADSVKGRFTISRDNAKNTVFLLMKSLKPEDTAVYYCARYHVGPSYRYGYWGQGTQVTVSS` has polyreactivity (PSR sort gate) of high polyreactivity

Recorded result, `QVQLVESGGGLVQAGGSLRLSCAASGSTFSYYVMGWYRPAPGKERELVAAISGSGGSTYYADSVKGRFTISRDNAKNTVYLQMNSLKPEDTAVYYCDANDGSEYDYWGQGTQVTVSS` , polyreactivity (PSR sort gate): high polyreactivity

Next:
For `QVQLVESGGGLVQAGGSLRLSCAASGRTFTINGMGWYRQAPGKERELVAGINWRDGRTYYADSVKGRFTISRDNAKNTVYLQMNSLKPEDTAVYYCNVEVAESFDYWVQGTQVTVSS` the sequence record lists polyreactivity (PSR sort gate) as low polyreactivity

* * *

- METHOD_DESCRIPTION: yeast display, Sf9 membrane polyspecificity reagent, FACS + sequencing; frameworks hold sequencing errors
ATTRIBUTE_MEASURED: polyreactivity (PSR sort gate)

Consider `QVQLVESGGGLVQAGGSLRLSCAASGSTLSDYAMGWYRQAPGKERELVAAISTSGGRTYYADSVKGRFTISRDNAKNTVYLQMNSLKPEDTAVYYCAVDHYSSYEYWGQGTQVSVSS` . Its measured polyreactivity (PSR sort gate) is low polyreactivity

Looking up `QVQLVESGGGLVQAGGSLRLSCAASGRILQVEYAMGWNIQAPGKERELVAAITESDGSTSYADSVKGRFTISRDNAKNTVYLQMNSLKPEDTAVYYCNVVRGYPNGGYDYWGQGTQVTVSS` , I see its polyreactivity (PSR sort gate) listed as low polyreactivity

* * *

- METHOD_DESCRIPTION: yeast display, Sf9 membrane polyspecificity reagent, FACS + sequencing; frameworks hold sequencing errors
ATTRIBUTE_MEASURED: polyreactivity (PSR sort gate)

`QVQLVESGGGLVQAGGSLRLRCAASGSIFARNAMGWYRQAPGKERELVASITWSGASTFYADSVKGRFTISRDNAKYTVYLQMNSLKPDVTAVYYCAATDQKLSLDYSSYEYWGQGSQVTVSS` has a reported polyreactivity (PSR sort gate) of low polyreactivity

sequence `QVQLVESGGGLVQAGGSLRLSCGASGSIFNKYAIGWYRQAPGKERELVAAISVSGTRTYYADSVKGRFTISRDNAKNTCYLQMNSLKPEDTAVYYCAATRLDSTGSMYYYWGQGTQVTVSS` , polyreactivity (PSR sort gate) observed: high polyreactivity

Noted for `QVDLVESAGGLVQAGGSLRLSCAASGSIFPGYTMGWYRQAPGQERELVAAISRRGGSTYYADSVKGRFTISRDNAKNTVYLQMNSLIPEDTAVYYCAIVPDYRFEYWGQGSQVTVSS` : its polyreactivity (PSR sort gate) reads high polyreactivity

polyreactivity (PSR sort gate) reading for `QVQLVESGGGLVQARGSLRLSCAASGRILKRYAMGWYRQAPGKERELVAAISYGGGSTDYADSVKGRFTISRDNAKNTVYLQMNSLKPEDTAVYYCAAKVRYYLSLRGSTTRRDDYYWGQGTQVTVSS` : low polyreactivity

The recorded polyreactivity (PSR sort gate) for entry `QVQLVESGGGLVQAGGSLCLSCAGSGIFVYKAMGRYRQAPGKEREFVAAINKSGASTFYADSVKGRFTISRDNAKKTVYLQMNSLKPEDTAVYYCAKVPHVYRHYYYWGQGTQVTVSS` equals low polyreactivity

// sample `QVQLVESGGGLVQAGGSVRLSCAASGRIFSRKAMRWYIQAPGKERELVAAISRSGTSTYYADSVKGRFTISRDNAKNTVYLQMNSLKPEDNAVYYCAADYPAVISIRRYDYWGQGTQVTVSS` , its polyreactivity (PSR sort gate) was low polyreactivity

# sequence `QVQLEESGGGLVQAGGSLRLTCAGSGRIFGIYAMGWYRQAPGKERQLVAAIRDSGSRTYYADSVKGRFTISRDNAKNTVYLQMNRLTPEDTAVYYCAARTYTYPYFGGYQYTYNYWGQGTQVTVSS` ; its polyreactivity (PSR sort gate) = low polyreactivity

Lab note: `QVQLVESGGGIVQAGGSLRLSCAASGRIFQLYGMGWYRQAPGKERECVAAISYGGGSTYYADSVKGRFTISRDIAKNTVYFKMNSLKPEDTAVYYCAAERRFYSLAKYQSMDYWGQGTQVTVSS` gave polyreactivity (PSR sort gate) of low polyreactivity

The sequence identified as `QVQLVESGGGLVQAGGSLRLSCAASGSIFIYAMGWYRQAPGKERELVATISWSGTSTYADSVKGRFTISRDNAKNTVYLQMNSLKPEDTAVYYCNKLKRTYYSSGYPHDYWGQGTQVTVSS` registered its polyreactivity (PSR sort gate) at low polyreactivity

Record `QVQLVESGGGLVQAGGSLRLTCAASGFIFVRNAMGWYRQAPGKERDLVAAISSRGGRTYYADSVKGRFTISRDNAKYTVYLQMNRLKPEDTAVYYCNADRDTQGDGYDYWGQGTQVTVSS` , field polyreactivity (PSR sort gate): high polyreactivity

Others:
Measured polyreactivity (PSR sort gate), `QVQLVESGGGLVQAGGSLRLSCAASGSIFPPYVMGWYRPAPGKERELVAAINYIGDSTYADSVKGRFTISRDNAKNTVYLQINSLKPEDTAVYYCAAELWSGGVYSGFEEYWGQGTQVTVSS` : high polyreactivity

polyreactivity (PSR sort gate) in this record for `QVQLEESGGGFVQAGGSLRLSCAASGFIFRRYAMGWYRQAPGKERELVAAISWRSGSTYYADSVKGRFTISRDNAKNTVYSPMKCLKPEDTAVYYCAAKDQATYQLYYWGQGTQVTVSS` : high polyreactivity

Entry under test: `QVQLVESGGGLVQAGGSLRLSCAASGSIFRNYAMGWYRQAPGKERELVAAISYRGGSTYYADSVKGRFTISRDNAKNTVYLQMNSLKPEDTAVYYCAARTRKAYYYWGQGTQVTVSS` . Its polyreactivity (PSR sort gate) was high polyreactivity
